Origin of values: patent US9682033B2

Test: ADME study in the minipig after repeated daily dermal dosing (Biological Example 1)
Type: in vivo, Göttingen minipig
Conditions: male, Göttingen, minipig, plasma, topical or ocular, 70 mg ointment/kg; minipigs, 21 days of repeated dermal dosing; read-out: mean maximum observed concentration (Cmax) in plasma

{"columns": ["smiles entry", "Cmax"],
 "data": [
  ["O=C1N(Cc2ccc(C(F)(F)F)o2)c2ccccc2[C@]12COc1cc3c(cc12)OCO3", "15 ng/mL"]
]}

* * *

Target: UniProt P08684
Assay: Drug-drug interaction study in healthy subjects: midazolam (CYP3A4 substrate) pharmacokinetics (Biological Example 5)
Conditions: both, human, in vivo, po

{"columns": ["compound", "target or test system", "Tmax [min]"],
 "data": [
  ["Cc1ncc2n1-c1ccc(Cl)cc1C(c1ccccc1F)=NC2 [midazolam, reference compound]", "UniProt P08684", 37.8]
]}

* * *

Biological target: CYP3A4 (Homo sapiens)
Sequence (P08684 whole entry): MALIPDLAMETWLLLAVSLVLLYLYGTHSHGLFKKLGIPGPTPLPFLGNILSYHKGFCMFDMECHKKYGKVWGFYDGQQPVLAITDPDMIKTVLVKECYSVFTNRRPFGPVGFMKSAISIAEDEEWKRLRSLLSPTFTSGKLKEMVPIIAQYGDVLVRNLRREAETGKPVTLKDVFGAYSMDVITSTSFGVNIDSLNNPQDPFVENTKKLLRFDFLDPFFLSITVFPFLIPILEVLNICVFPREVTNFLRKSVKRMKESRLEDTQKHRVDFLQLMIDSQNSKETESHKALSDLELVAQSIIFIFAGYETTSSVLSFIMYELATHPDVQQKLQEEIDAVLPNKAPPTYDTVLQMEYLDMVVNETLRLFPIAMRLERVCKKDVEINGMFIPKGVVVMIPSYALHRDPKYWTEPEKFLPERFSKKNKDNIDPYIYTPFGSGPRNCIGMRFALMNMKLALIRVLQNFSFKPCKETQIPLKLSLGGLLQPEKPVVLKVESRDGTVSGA
Assay: Drug-drug interaction study in healthy subjects: midazolam (CYP3A4 substrate) pharmacokinetics (Biological Example 5)
Settings: both, human, in vivo, po, 3 mg

{"columns": ["compound", "AUC(0-inf), ng·h/mL"],
 "data": [
  ["Cc1ncc2n1-c1ccc(Cl)cc1C(c1ccccc1F)=NC2 [midazolam, reference compound]", 43.8]
]}

* * *

Experiment: 4-week (GLP) repeat-dose dermal toxicity study in minipigs
Settings: minipig, in vivo, topical or ocular; male minipigs, 30 mg/kg/day dermal, day 28

{"columns": ["smiles entry", "Cmax / ng/mL"],
 "data": [
  ["O=C1N(Cc2ccc(C(F)(F)F)o2)c2ccccc2[C@]12COc1cc3c(cc12)OCO3", 21]
]}

* * *

Biological target: UniProt P08684
Experiment: Drug-drug interaction study in healthy subjects: midazolam (CYP3A4 substrate) pharmacokinetics (Biological Example 5)
Settings: both, human, in vivo, po, 3 mg

{"columns": ["compound", "endpoint unit", "Cmax"],
 "data": [
  ["Cc1ncc2n1-c1ccc(Cl)cc1C(c1ccccc1F)=NC2 [midazolam, reference compound]", "ng/mL", 16.9]
]}

* * *

Experiment: 4-week (GLP) repeat-dose dermal toxicity study in minipigs
Conditions: minipig, in vivo, topical or ocular; female minipigs, 30 mg/kg/day dermal, day 28; read-out: AUC0-24 h
Procedure: Repeat-dose dermal toxicity of a pharmaceutical composition comprising the spiro-oxindole compound was evaluated in minipigs in a 7-day (non-GLP) dermal study and in a 4-week (GLP) dermal study with a 2-week recovery period. In addition, a dose range-finding (DRF) dermal study in minipigs was conducted to aid in dose selection for a 39-week dermal toxicity study in minipigs. […]
test readout: AUC(0-t) (ng·h/mL)

{"columns": ["smiles entry", "recorded number"],
 "data": [
  ["O=C1N(Cc2ccc(C(F)(F)F)o2)c2ccccc2[C@]12COc1cc3c(cc12)OCO3", 382]
]}

* * *

Assay: in vivo
Set-up: species or system rats
Details: female, rat, po, NOAEL for maternal toxicity

{"columns": ["smiles entry", "NOAEL (mg/kg/day)"],
 "data": [
  ["O=C1N(Cc2ccc(C(F)(F)F)o2)c2ccccc2[C@]12COc1cc3c(cc12)OCO3", 50]
]}

* * *

Experiment: Drug-drug interaction study in healthy subjects: pharmacokinetics of the spiro-oxindole compound (Biological Example 5)
Format: in vivo, human
Details: both sexes, human, plasma, topical, 8 % composition applied to 53% of BSA, BID, day 9, over 24 hours from the final application, read-out: geometric mean Cmax

{"columns": ["compound", "Cmax [ng/mL]"],
 "data": [
  ["O=C1N(Cc2ccc(C(F)(F)F)o2)c2ccccc2[C@]12COc1cc3c(cc12)OCO3 [spiro-oxindole compound]", 15.1]
]}
